- measured_target: NEK6 (Homo sapiens)
- Sequence (Q9HC98 whole entry): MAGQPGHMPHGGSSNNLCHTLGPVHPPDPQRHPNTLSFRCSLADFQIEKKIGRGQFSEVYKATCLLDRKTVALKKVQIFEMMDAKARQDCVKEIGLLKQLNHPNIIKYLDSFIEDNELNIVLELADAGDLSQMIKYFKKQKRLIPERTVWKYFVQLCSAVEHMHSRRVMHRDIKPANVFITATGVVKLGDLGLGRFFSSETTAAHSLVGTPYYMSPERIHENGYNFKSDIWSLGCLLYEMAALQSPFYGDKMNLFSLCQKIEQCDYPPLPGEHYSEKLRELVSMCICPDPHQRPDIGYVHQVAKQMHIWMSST
quantity_kind: pIC50
By convention, pIC50 is the negative base-10 log of a molar concentration.

molecule CN1CCN(c2ccc(Nc3ncc(C#N)c(Nc4ccccc4C(N)=O)n3)cc2)CC1.Cl , pIC50 observed: 6.59

* * *

Kindly supply the reported pIC50 values for the records listed here.
pIC50: −log10 of the molar value.

Entry Cl.NCC1(c2nc(-c3ccc(Cl)c(O)c3)c(-c3ccncc3)[nH]2)CCCCC1 : pIC50 on AURKA (Homo sapiens) = < 4.70

Entry CN(C)CC(O)COc1ccc(Nc2ncc([N+](=O)[O-])c(Nc3ccccc3O)n2)cc1.O=C(O)C(F)(F)F (centres unmarked) : pIC50 on AURKA (Homo sapiens) = < 4.70

* * *

- measured_target: GSK3B (Homo sapiens)
- Sequence (P49841 whole entry): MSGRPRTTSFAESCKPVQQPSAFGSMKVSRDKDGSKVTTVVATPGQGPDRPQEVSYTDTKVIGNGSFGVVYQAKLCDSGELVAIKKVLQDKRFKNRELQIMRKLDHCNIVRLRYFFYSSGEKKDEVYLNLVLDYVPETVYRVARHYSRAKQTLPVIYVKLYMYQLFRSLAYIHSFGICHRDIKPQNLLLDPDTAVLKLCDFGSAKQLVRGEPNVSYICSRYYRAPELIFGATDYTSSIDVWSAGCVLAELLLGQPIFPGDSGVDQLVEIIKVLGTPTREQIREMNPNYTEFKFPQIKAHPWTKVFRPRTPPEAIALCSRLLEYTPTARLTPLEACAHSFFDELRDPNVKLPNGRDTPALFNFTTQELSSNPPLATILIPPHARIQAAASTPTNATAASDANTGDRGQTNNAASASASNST
- method_description: biochemical
quantity_kind: IC50 (µM)
Expressed in µM, but write only the number.

molecule Cl.NCC1(c2nc(-c3ccc(Cl)c(O)c3)c(-c3ccncc3)[nH]2)CCCCC1 , IC50 observed: 7.7

* * *

- measured_target: PIP4K2A (Homo sapiens)
- Sequence (P48426 1-406): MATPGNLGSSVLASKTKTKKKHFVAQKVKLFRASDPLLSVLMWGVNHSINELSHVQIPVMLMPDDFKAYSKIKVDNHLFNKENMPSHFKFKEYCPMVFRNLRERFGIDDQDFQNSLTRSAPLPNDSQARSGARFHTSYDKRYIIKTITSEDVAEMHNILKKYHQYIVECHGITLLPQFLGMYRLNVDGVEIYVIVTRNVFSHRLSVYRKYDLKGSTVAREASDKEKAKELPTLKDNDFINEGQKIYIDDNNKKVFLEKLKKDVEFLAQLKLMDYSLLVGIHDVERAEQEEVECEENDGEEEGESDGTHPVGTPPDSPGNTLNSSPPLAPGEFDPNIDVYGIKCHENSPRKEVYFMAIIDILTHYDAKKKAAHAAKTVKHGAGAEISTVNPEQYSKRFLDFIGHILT
quantity_kind: IC50

compound Cl.NCC1(c2nc(-c3ccc(Cl)c(O)c3)c(-c3ccncc3)[nH]2)CCCCC1 , IC50 observed: > 20 µM

* * *

Kindly supply the reported IC50 values for the records listed here.
Sequence of the target: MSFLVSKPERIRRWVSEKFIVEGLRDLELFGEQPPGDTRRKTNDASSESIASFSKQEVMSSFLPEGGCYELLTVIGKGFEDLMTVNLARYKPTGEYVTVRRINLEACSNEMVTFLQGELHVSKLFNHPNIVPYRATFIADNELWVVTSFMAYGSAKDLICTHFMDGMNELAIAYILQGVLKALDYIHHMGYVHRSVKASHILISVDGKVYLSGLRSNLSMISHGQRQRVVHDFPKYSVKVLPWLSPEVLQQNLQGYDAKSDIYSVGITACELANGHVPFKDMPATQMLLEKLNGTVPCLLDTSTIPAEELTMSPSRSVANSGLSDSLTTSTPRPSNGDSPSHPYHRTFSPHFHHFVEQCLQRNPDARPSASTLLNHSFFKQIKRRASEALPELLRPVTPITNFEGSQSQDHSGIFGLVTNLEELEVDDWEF

compound CN1CCN(c2ccc(Nc3ncc(C#N)c(Nc4ccccc4C(N)=O)n3)cc2)CC1.Cl [TCMDC-134116] , IC50 observed: > 20 µM

compound Cl.NCC1(c2nc(-c3ccc(Cl)c(O)c3)c(-c3ccncc3)[nH]2)CCCCC1 [TCMDC-141154] , IC50 observed: > 20 µM

compound CN(C)CC(O)COc1ccc(Nc2ncc([N+](=O)[O-])c(Nc3ccccc3O)n2)cc1.O=C(O)C(F)(F)F (stereo not drawn) [TCMDC-141399] , IC50 observed: > 20 µM
